Species on record: Homo sapiens
Test: Selectivity index, ratio of Ki for inhibition of FITC-labelled BAK BH3 peptide to 6His-MBP tagged recombinant human MCL-1 (172 to 327 residues) expressed in Escherichia coli assessed as inhibition constant to Ki for binding affinity to BCL-xL (unknown origin) assessed as inhibition constant
Parameter class (string): assigned from measured Ratio Ki. Ranges: category 1 = under 2, category 2 = from 2 up to 3, category 3 = 3 and over

Take a look at these entries with their results.
compound=CC(C)CN(c1ccc(O)c(C(=O)O)c1)S(=O)(=O)c1ccc(-c2ccccc2)cc1 label="category 1"
compound=Cc1cc(Oc2ccc(S(=O)(=O)N(CC(C)C)c3ccc(O)c(C(=O)O)c3)cc2)cc(C)c1Cl label="category 3"

(Q) Sort CC(C)CN(c1ccc(O)c(C(=O)O)c1)S(=O)(=O)c1ccccc1 into one of the categories.
(A) category 1

(Q) # classify by Ratio Ki band: CC(C)CN(c1ccc(C(=O)O)c(O)c1)S(=O)(=O)c1ccc2ccccc2c1
(A) category 3

(Q) # bin lookup: classify CC(C)CN(c1ccc(C(=O)O)c(O)c1)S(=O)(=O)c1ccc(Oc2ccccc2)cc1 by its Ratio Ki
(A) category 3

(Q) Assign a category based on measured Ratio Ki for Cc1cc(Oc2ccc(S(=O)(=O)N(Cc3ccccc3)c3ccc(C(=O)O)c(O)c3)cc2)cc(C)c1Cl and give only the class name.
(A) category 2

(Q) For the record Cc1cc(Oc2ccc(S(=O)(=O)N(CC(C)C)c3ccc(C(=O)O)c(O)c3)cc2)cc(C)c1Cl , report the class its Ratio Ki corresponds to.
(A) category 2

(Q) Hey, which category is CC(C)CN(c1ccc(O)c(C(=O)O)c1)S(=O)(=O)c1ccc2ccccc2c1 in, do you know?
(A) category 3

(Q) Lab log: CC(C)CN(c1ccc(C(=O)O)c(O)c1)S(=O)(=O)c1ccc(-c2ccccc2)cc1 — assign Ratio Ki category
(A) category 2

(Q) Each molecule maps to one class by Ratio Ki. Which class for Cc1cc(Oc2ccc(S(=O)(=O)N(c3ccc(C(=O)O)c(O)c3)C3CCCC3)cc2)cc(C)c1Cl ?
(A) category 1

(Q) Exercise: read the entry CC(C)CN(c1ccc(C(=O)O)c(O)c1)S(=O)(=O)c1ccccc1 and state which class it falls under.
(A) category 1

###

Target: Induced myeloid leukemia cell differentiation protein Mcl-1 (Homo sapiens)
Experiment: Binding affinity to MCL-1 (unknown origin) assessed as inhibition constant
observable: Ki (nM)
Numeric only. Scale: nM

(Q) Form field: reported Ki of Cc1cc(Oc2ccc(S(=O)(=O)N3CCCc4cc(C(=O)O)ccc43)cc2)cc(C)c1Cl
(A) 2730

###

Target: Induced myeloid leukemia cell differentiation protein Mcl-1 (Homo sapiens, UniProt Q07820)
Sequence (Q07820 whole entry, the tested form may be a part): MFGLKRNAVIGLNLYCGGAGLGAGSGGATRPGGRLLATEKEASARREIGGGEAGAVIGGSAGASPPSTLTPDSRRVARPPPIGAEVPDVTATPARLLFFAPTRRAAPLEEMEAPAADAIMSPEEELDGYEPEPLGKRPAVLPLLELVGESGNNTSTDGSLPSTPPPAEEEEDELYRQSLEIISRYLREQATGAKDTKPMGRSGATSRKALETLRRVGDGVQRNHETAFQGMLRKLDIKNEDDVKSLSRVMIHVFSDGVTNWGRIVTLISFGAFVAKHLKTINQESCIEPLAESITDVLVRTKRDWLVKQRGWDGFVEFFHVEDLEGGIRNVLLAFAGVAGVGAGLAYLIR
Assay: Inhibition of FITC-labelled BAK BH3 peptide to 6His-MBP tagged recombinant human MCL-1 (172 to 327 residues) expressed in Escherichia coli assessed as inhibition constant by fluorescence polarization competition assay
Overview of reported Ki across a group of compounds:
Entry rule: numbers only, all in µM.

compound=Cc1cc(Oc2ccc(S(=O)(=O)N(CC(C)C)c3ccc(C(=O)O)c(O)c3)cc2)cc(C)c1Cl result_value=0.778

Now look at this one.
(Q) Which Ki reading was recorded for the compound Cc1cc(Oc2ccc(S(=O)(=O)N(c3ccc(C(=O)O)c(O)c3)C3CCCC3)cc2)cc(C)c1Cl ?
(A) 1.76
